The reported numbers originate from paper PMC5799168.

tgt: Ndi1 (Saccharomyces cerevisiae, UniProt P32340)
Construct: The mature Ndi1, which lacks a mitochondrial targeting; (His)10; made in house; host or cells: E. coli BL21(DE3)pLysS, plasmid pET16b(NDI1-m)
Sequence (P32340 27-513): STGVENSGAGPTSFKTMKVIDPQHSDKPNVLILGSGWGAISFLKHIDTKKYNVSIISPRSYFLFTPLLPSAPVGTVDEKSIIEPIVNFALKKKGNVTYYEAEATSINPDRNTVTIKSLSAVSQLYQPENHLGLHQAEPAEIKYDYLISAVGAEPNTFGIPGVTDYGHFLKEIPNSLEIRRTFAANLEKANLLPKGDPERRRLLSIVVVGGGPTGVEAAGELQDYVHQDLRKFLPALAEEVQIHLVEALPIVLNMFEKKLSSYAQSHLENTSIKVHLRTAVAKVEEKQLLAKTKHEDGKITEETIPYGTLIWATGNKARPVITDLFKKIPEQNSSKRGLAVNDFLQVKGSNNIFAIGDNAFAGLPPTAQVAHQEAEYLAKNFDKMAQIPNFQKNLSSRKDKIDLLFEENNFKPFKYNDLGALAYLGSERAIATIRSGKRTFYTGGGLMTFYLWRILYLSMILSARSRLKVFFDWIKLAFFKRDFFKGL
experimental_protocol: Inhibition of NADH-ubiquinone-1 oxidoreductase activity of the purified Ndi1
Assay type: biochemical
condition_description: NADH-ubiquinone-1 oxidoreductase activity, purified recombinant Ndi1, 100 µM NADH, pH 6.0; mean ± S.E.M of three independent experiments
quantity_measured: pIC50
Lab note — pIC50 values are minus log10 of concentrations in M.

                                   molecule  quantity_measured  endpoint_value
0  CCCCCCCCCCCCc1cc(=O)c2ccccc2n1O [AC0-12, 1-hydroxy-2-dodecyl-4(1 H) quinolone]              pIC50            6.94
1  CC(/C=C/[C@@]1(C)[C@H](C)CCC(=O)[C@@H]1C)=C\Cc1c(O)c(Cl)c(C)c(C=O)c1O              pIC50            6.02

Now look at this entry.
Quick one: pIC50 for C/C=C(C)/C=C/C=C/[C@H](OC)[C@@H](C)[C@@H](OC)[C@@H](C)CCc1oc2c(O)c(OC)cc(OC)c2c(=O)c1C ?
6.97
